biological target: recombinant bovine CAII enzyme (bCAII) (Bos taurus); construct: purchased Sigma-Aldrich; host or cells: E. coli; test: Dansylamide (DNSA) displacement fluorescence assay on carbonic anhydrase catalytic site; type: binding; conditions: 0.25 μM bCAII, 5 μM DNSA, 20 mM Tris pH 8; triplicate; read-out: CAII receptor affinity (KD)
Sequence (P00921 whole entry): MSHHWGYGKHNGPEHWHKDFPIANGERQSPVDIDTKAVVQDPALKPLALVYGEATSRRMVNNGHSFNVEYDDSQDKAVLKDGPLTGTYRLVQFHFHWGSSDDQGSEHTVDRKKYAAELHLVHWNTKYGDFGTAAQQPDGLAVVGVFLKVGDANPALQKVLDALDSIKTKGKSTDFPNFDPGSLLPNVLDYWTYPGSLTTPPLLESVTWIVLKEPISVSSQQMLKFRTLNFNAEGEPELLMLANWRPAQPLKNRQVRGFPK
pKd: −log10 of the molar value.
MEASUREMENT_KIND: pKd

As a guide, the following entries are already answered.
COMPOUND	pKd
CC1(C)C(/C=C/C2=C(Oc3ccc(S(=O)(=O)O)cc3)C(=C/C=C3/N(CCCCS(=O)(=O)O)c4ccc(S(=O)(=O)O)cc4C3(C)C)/CCC2)=[N+](CCCCS(=O)(=O)[O-])c2ccc(C(=O)NCCCCCCCC(=O)Nc3nnc(S(N)(=O)=O)s3)cc21 [Compound 3]	8.42
CC1(C)C(/C=C/C2=C(Oc3ccc(CCC(=O)NCCCCCCCC(=O)Nc4nnc(S(N)(=O)=O)s4)cc3)C(=C/C=C3/N(CCCCS(=O)(=O)O)c4ccc(S(=O)(=O)O)cc4C3(C)C)/CCC2)=[N+](CCCCS(=O)(=O)[O-])c2ccc(S(=O)(=O)O)cc21 [HF-1, reference compound]	8.02

[I] CC1(C)C(/C=C/C=C/C=C/C=C2/N(CCCCS(=O)(=O)O)c3ccc(C(=O)NC[C@H](O)[C@@H](O)[C@H](O)[C@H](O)CO)cc3C2(C)C)=[N+](CCCCS(=O)(=O)[O-])c2ccc(C(=O)NCCCCCCCC(=O)Nc3nnc(S(N)(=O)=O)s3)cc21 [Compound 1]
[II] CC1(C)C(/C=C/C=C/C=C/C=C2/N(CCCCS(=O)(=O)O)c3ccc(S(=O)(=O)O)cc3C2(C)C)=[N+](CCCCS(=O)(=O)[O-])c2ccc(C(=O)NCCCCCCCC(=O)Nc3nnc(S(N)(=O)=O)s3)cc21 [Compound 2]
Between the two listed entries I and II , which has its pKd at the higher number? Respond with the label that goes with your answer.
II
(II: 8.43, I: 8.21)

---

assay: Ex vivo biodistribution, organ-to-muscle ratio; assay type: in vivo, mice; conditions: 1 nmol/mouse, 24 hours after administration
MEASUREMENT_KIND: Organ-to-muscle ratio, stomach

COMPOUND	NUMERIC_READOUT
CC1(C)C(/C=C/C2=C(Oc3ccc(CCC(=O)NCCCCCCCC(=O)Nc4nnc(S(N)(=O)=O)s4)cc3)C(=C/C=C3/N(CCCCS(=O)(=O)O)c4ccc(S(=O)(=O)O)cc4C3(C)C)/CCC2)=[N+](CCCCS(=O)(=O)[O-])c2ccc(S(=O)(=O)O)cc21 [HF-1, reference compound]	4.0

[P] CC1(C)C(/C=C/C2=C(Oc3ccc(S(=O)(=O)O)cc3)C(=C/C=C3/N(CCCCS(=O)(=O)O)c4ccc(S(=O)(=O)O)cc4C3(C)C)/CCC2)=[N+](CCCCS(=O)(=O)[O-])c2ccc(C(=O)NCCCCCCCC(=O)Nc3nnc(S(N)(=O)=O)s3)cc21 [Compound 3]
[Q] CC1(C)C(/C=C/C=C/C=C/C=C2/N(CCCCS(=O)(=O)O)c3ccc(C(=O)NC[C@H](O)[C@@H](O)[C@H](O)[C@H](O)CO)cc3C2(C)C)=[N+](CCCCS(=O)(=O)[O-])c2ccc(C(=O)NCCCCCCCC(=O)Nc3nnc(S(N)(=O)=O)s3)cc21 [Compound 1]
[R] CC1(C)C(/C=C/C=C/C=C/C=C2/N(CCCCS(=O)(=O)O)c3ccc(S(=O)(=O)O)cc3C2(C)C)=[N+](CCCCS(=O)(=O)[O-])c2ccc(C(=O)NCCCCCCCC(=O)Nc3nnc(S(N)(=O)=O)s3)cc21 [Compound 2]
Please list these in order of increasing Organ-to-muscle ratio, stomach. Thank you! Returns: the labels listed in the requested order.
P, R, Q

---

assay: Ex vivo biodistribution, organ-to-muscle ratio; assay type: in vivo, mice; settings: 1 nmol/mouse, 24 hours after administration
MEASUREMENT_KIND: Organ-to-muscle ratio, liver

MOLECULE	Organ-to-muscle ratio, liver
CC1(C)C(/C=C/C2=C(Oc3ccc(S(=O)(=O)O)cc3)C(=C/C=C3/N(CCCCS(=O)(=O)O)c4ccc(S(=O)(=O)O)cc4C3(C)C)/CCC2)=[N+](CCCCS(=O)(=O)[O-])c2ccc(C(=O)NCCCCCCCC(=O)Nc3nnc(S(N)(=O)=O)s3)cc21	3.1
CC1(C)C(/C=C/C2=C(Oc3ccc(CCC(=O)NCCCCCCCC(=O)Nc4nnc(S(N)(=O)=O)s4)cc3)C(=C/C=C3/N(CCCCS(=O)(=O)O)c4ccc(S(=O)(=O)O)cc4C3(C)C)/CCC2)=[N+](CCCCS(=O)(=O)[O-])c2ccc(S(=O)(=O)O)cc21 [HF-1, reference compound]	5.7
CC1(C)C(/C=C/C=C/C=C/C=C2/N(CCCCS(=O)(=O)O)c3ccc(C(=O)NC[C@H](O)[C@@H](O)[C@H](O)[C@H](O)CO)cc3C2(C)C)=[N+](CCCCS(=O)(=O)[O-])c2ccc(C(=O)NCCCCCCCC(=O)Nc3nnc(S(N)(=O)=O)s3)cc21	3.3
CC1(C)C(/C=C/C=C/C=C/C=C2/N(CCCCS(=O)(=O)O)c3ccc(S(=O)(=O)O)cc3C2(C)C)=[N+](CCCCS(=O)(=O)[O-])c2ccc(C(=O)NCCCCCCCC(=O)Nc3nnc(S(N)(=O)=O)s3)cc21	2.7

---

assay: Optical characterization (excitation/emission maxima, molar extinction coefficient); format: physicochemical; settings: Seronorm
MEASUREMENT_KIND: Max Em (nm)

MOLECULE	Max Em / nm
CC1(C)C(/C=C/C2=C(Oc3ccc(CCC(=O)NCCCCCCCC(=O)Nc4nnc(S(N)(=O)=O)s4)cc3)C(=C/C=C3/N(CCCCS(=O)(=O)O)c4ccc(S(=O)(=O)O)cc4C3(C)C)/CCC2)=[N+](CCCCS(=O)(=O)[O-])c2ccc(S(=O)(=O)O)cc21 [HF-1, reference compound]	808
CC1(C)C(/C=C/C2=C(Oc3ccc(S(=O)(=O)O)cc3)C(=C/C=C3/N(CCCCS(=O)(=O)O)c4ccc(S(=O)(=O)O)cc4C3(C)C)/CCC2)=[N+](CCCCS(=O)(=O)[O-])c2ccc(C(=O)NCCCCCCCC(=O)Nc3nnc(S(N)(=O)=O)s3)cc21	810
CC1(C)C(/C=C/C=C/C=C/C=C2/N(CCCCS(=O)(=O)O)c3ccc(S(=O)(=O)O)cc3C2(C)C)=[N+](CCCCS(=O)(=O)[O-])c2ccc(C(=O)NCCCCCCCC(=O)Nc3nnc(S(N)(=O)=O)s3)cc21	788
CC1(C)C(/C=C/C=C/C=C/C=C2/N(CCCCS(=O)(=O)O)c3ccc(C(=O)NC[C@H](O)[C@@H](O)[C@H](O)[C@H](O)CO)cc3C2(C)C)=[N+](CCCCS(=O)(=O)[O-])c2ccc(C(=O)NCCCCCCCC(=O)Nc3nnc(S(N)(=O)=O)s3)cc21	791

---

test: Ex vivo biodistribution, organ-to-muscle ratio; format: in vivo, mice; settings: 1 nmol/mouse, 24 hours after administration
MEASUREMENT_KIND: Organ-to-muscle ratio, kidney

[a] CC1(C)C(/C=C/C2=C(Oc3ccc(S(=O)(=O)O)cc3)C(=C/C=C3/N(CCCCS(=O)(=O)O)c4ccc(S(=O)(=O)O)cc4C3(C)C)/CCC2)=[N+](CCCCS(=O)(=O)[O-])c2ccc(C(=O)NCCCCCCCC(=O)Nc3nnc(S(N)(=O)=O)s3)cc21
[b] CC1(C)C(/C=C/C=C/C=C/C=C2/N(CCCCS(=O)(=O)O)c3ccc(C(=O)NC[C@H](O)[C@@H](O)[C@H](O)[C@H](O)CO)cc3C2(C)C)=[N+](CCCCS(=O)(=O)[O-])c2ccc(C(=O)NCCCCCCCC(=O)Nc3nnc(S(N)(=O)=O)s3)cc21
Pick one: a or b . Which has the bigger Organ-to-muscle ratio, kidney number? Return value: the label identifying the chosen record.
b
(b: 8.3, a: 4.7)
